- targetSystem: Human STING (Homo sapiens, UniProt Q86WV6, G230A/H232R/R293Q/R71H)
- Sequence (Q86WV6 whole entry R71H/G230A/H232R/R293Q): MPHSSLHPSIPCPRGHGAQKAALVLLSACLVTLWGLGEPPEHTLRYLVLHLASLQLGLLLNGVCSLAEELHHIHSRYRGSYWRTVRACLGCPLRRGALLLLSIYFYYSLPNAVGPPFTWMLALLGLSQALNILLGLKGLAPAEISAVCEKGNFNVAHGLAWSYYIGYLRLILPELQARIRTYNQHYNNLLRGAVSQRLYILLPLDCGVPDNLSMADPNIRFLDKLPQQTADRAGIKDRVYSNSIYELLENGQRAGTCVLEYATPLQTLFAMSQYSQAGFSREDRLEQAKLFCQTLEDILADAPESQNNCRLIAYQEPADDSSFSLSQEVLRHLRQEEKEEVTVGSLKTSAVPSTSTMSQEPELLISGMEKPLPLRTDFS
- testSummary: Activation of human STING signaling in permeabilized THP1 cells, IRF3 induction
- testSettings: THP1-Dual cells permeabilized with digitonin buffer 30 minutes on ice, then 24 h in RPMI media
observationType: EC50

CCc1nc(C)n(C)c1C(=O)Nc1nc2cc(C(N)=O)cc(OCCCO)c2n1C/C=C/Cn1c(NC(=O)c2cc(C)nn2CC)nc2cc(C(N)=O)cc(OC)c21 ≥ 50 µM

For the record `CCn1nc(C)cc1C(=O)Nc1nc2cc(CNC(C)=O)cnc2n1C/C=C/Cn1c(NC(=O)c2cc(C)nn2CC)nc2cc(C(N)=O)cc(OCCCO)c21` , what value of EC50 is listed for Human STING (Homo sapiens, UniProt Q86WV6, G230A/H232R/R293Q/R71H)?
< 1 µM

Recorded EC50 for `CCc1ncoc1C(=O)/N=c1\sc2cc(C(N)=O)cc(OC)c2n1C/C=C/Cn1c(NC(=O)c2ocnc2CC)nc2cc(C(N)=O)cc(OCCCO)c21` with Human STING (Homo sapiens, UniProt Q86WV6, G230A/H232R/R293Q/R71H), please?
≥ 50 µM

Missing value: EC50, Human STING (Homo sapiens, UniProt Q86WV6, G230A/H232R/R293Q/R71H), entry `CCc1nn(C)cc1C(=O)Nc1nc2cc(C(N)=O)cc(OCCCO)c2n1C/C=C/Cn1c(NC(=O)c2cc(C)nn2CC)nc2cc(C(N)=O)cc(OC)c21` . Fill in?
< 1 µM

State its EC50 on Human STING (Homo sapiens, UniProt Q86WV6, G230A/H232R/R293Q/R71H): `CCn1nc(C)cc1C(=O)Nc1nc2cc(CN)cnc2n1C/C=C/Cn1c(NC(=O)c2cc(C)nn2CC)nc2cc(C(N)=O)cc(OCCCO)c21`
< 1 µM

Form: Entry = `CCn1nc(C)cc1C(=O)Nc1nc2cc(C(N)=O)cnc2n1C/C=C/Cn1c(NC(=O)c2cc(C)nn2CC)nc2cc(C(N)=O)cnc21` | System = Human STING (Homo sapiens, UniProt Q86WV6, G230A/H232R/R293Q/R71H) | EC50 = ____
< 1 µM

* * *

- targetSystem: Human STING (Homo sapiens, UniProt Q86WV6, G230A/H232R/R293Q/R71H)
- testSummary: Activation of human STING signaling in permeabilized THP1 cells, IRF3 induction
- testSettings: THP1-Dual cells permeabilized with digitonin buffer 30 minutes on ice, then 24 h in RPMI media
Below is a list of entries, each paired with its recorded EC50 value.

In the examples that follow, each entry is paired with its recorded EC50.
compound	observationType	result
NC(=O)c1ccc2c(c1)nc(NC(=O)c1cocn1)n2C/C=C/Cn1c(NC(=O)c2cocn2)nc2cc(C(N)=O)cc(OCCCO)c21 [compound 28]	EC50	≥ 50000 nM
CCc1nc(C)oc1C(=O)Nc1nc2cc(C(N)=O)cc(OC)c2n1C/C=C/Cn1c(NC(=O)c2cnc(C)o2)nc2cc(C(N)=O)cc(OCCCO)c21 [Compound 136]	EC50	≥ 50000 nM
CCc1nc(C)oc1C(=O)Nc1nc2cc(C(N)=O)cnc2n1C/C=C/Cn1c(NC(=O)c2oc(C)nc2CC)nc2cc(C(N)=O)cc(OCCCC(=O)O)c21 [compound 97]	EC50	< 1000 nM
CCn1nc(C)cc1C(=O)Nc1nc2cc(C(N)=O)cnc2n1C/C=C/Cn1c(NC(=O)c2cc(C)nn2CC)nc2cc(C(N)=O)cc(OCCCO)c21 [compound 94]	EC50	< 1000 nM
CCn1nc(C)cc1C(=O)/N=c1\sc2cc(C(=O)OC)cc(OC)c2n1C/C=C/Cn1c(NC(=O)c2cc(C)nn2CC)nc2cc(C(N)=O)cc(OCCCO)c21 [Compound 115]	EC50	< 1000 nM

Which EC50 is reported for this compound? CCc1nc(C)oc1C(=O)Nc1nc2cc(C(N)=O)cc(OCCCO)c2n1C/C=C/Cn1c(NC(=O)c2cc(C)nn2CC)nc2cc(C(N)=O)cnc21 [Compound 111]
< 1000 nM

Could you share which EC50 value was measured for CCc1nc(C)oc1C(=O)Nc1nc2cc(N)cc(OC)c2n1C/C=C/Cn1c(NC(=O)c2oc(C)nc2CC)nc2cc(C(N)=O)cc(OCCCO)c21 [Compound 135] ?
1000 to 50000 nM
